- Tested on: SK-MEL-5 melanoma
- Protocol Summary: NCI tumour cell line growth inhibition, 48 h
Property: TGI (µM)
Give just the number in µM; leave the unit off.

Here is how some compounds turned out for TGI.
> print(dat)
                               smiles.entry  property  recorded.number
1  CCC[CH2][Ge]([CH2]CCC)([CH2]CCC)[O]C(=O)CCl       TGI             3.36
2  NC(=O)c1ccc(-c2c3ccccc3cc3c2ccc2ccccc23)cc1       TGI               14
3                     O=C1C=Cc2noc3cccc1c23       TGI             24.2

Shift focus to the following entry.
Exercise: If you can, please state the reported TGI value of CC(C)=CCC[C@](C)(O)[C@H]1CC[C@]2(C)[C@@H]1CC[C@@H]1[C@@]3(C)CC[C@H](OC(=O)CCC(=O)O)C(C)(C)[C@@H]3CC[C@]12C .
Key: 43.2

---

- System: UO-31 renal
- Protocol Summary: NCI tumour cell line growth inhibition, 48 h
Decide by TGI: equal to or exceeding 20 µM means y, less means n.

Would you please look over these solved cases?
Compound	Answer Label
C=C(Cl)C(=C)CCC(Cl)C(C)(C)Cl (configuration not stated)	y
S=C1OC2C3C4CC5C3C(O1)C1C5C4C21 (configuration not stated)	y

Exercise: In plain terms: is recorded TGI at least 20 µM for CCOc1cc(C=Nc2ccc(Oc3ccc(Cl)cc3)c(Cl)c2)ccc1O ?
Key: y

Exercise: Query C=C1C(=O)C23C(CC(OC(C)=O)C1[C@@H]2OC(C)=O)C1(C)C(OC(C)=O)CCC(C)(C)C1C[C@@H]3OC(C)=O (some centres not stated) next
Key: n

Exercise: Query Clc1cccc(Cl)c1C1ON=C(c2ccccc2)N1C12CC3CC(CC(C3)C1)C2 (configuration not stated) next
Key: y

Exercise: Query NC(=O)CN1CCN(c2nc(N3CCCC3)c3nc(Cl)c(NCc4ccccc4)nc3n2)CC1 next
Key: y

Exercise: Query C=C1C[C@]23CC[C@@H]4C(CO)(CO)CC(=O)C[C@]4(C)[C@@H]2C(O)C[C@H]1C3 (some centres not stated) next
Key: y

---

- Test system: M14 melanoma
- Protocol Summary: NCI tumour cell line growth inhibition, 48 h
# TGI per record follows

> print(dat)
                                   compound    result
1  N#CC(/C(=N\NC(N)=S)C(=O)NC1C2CC3CC(C2)CC1C3)c1ccc(Cl)cc1 (centres undefined)  > 100 µM
2  O=C1CCCC2COc3ccc(O)c1c32 (centres undefined)  > 100 µM
3  OCC(CO)CC1COc2ccccc2O1 (centres undefined)   > 10 µM

Exercise: If you can, please state the reported TGI value of O/N=C1/CCCCC1NO (centres undefined) .
Key: > 100 µM

---

- Tested on: RPMI-8226 leukemia
- Protocol Summary: NCI tumour cell line growth inhibition, 48 h
Property: TGI

Exercise: If you can, please state the reported TGI value of CCn1c(-c2cc3ccccc3cc2OC(=O)c2ccccc2)n[nH]c1=S .
Key: 23.8 µM

Exercise: Query CC(C)c1cc2c(O)c(c1)Cc1cc(C(C)C)cc(c1O)Cc1cc(C(C)C)cc(c1O)Cc1cc(C(C)C)cc(c1O)Cc1cc(C(C)C)cc(c1O)Cc1cc(C(C)C)cc(c1O)C2 next
Key: > 100 µM

Exercise: Query CCn1cc(C2NC(=O)c3cc(F)ccc3N2)c2cccc(Cl)c21 (stereo not drawn) next
Key: > 100 µM

---

- Test system: SF-539 CNS
- Protocol Summary: NCI tumour cell line growth inhibition, 48 h
# GI50 per record follows

> print(dat)
                                   molecule   tested.on  result
1  C[C@H]1CC(=O)[C@@]2(O)C#C/C=C\C#C[C@@H]3Nc4c(cc(O)c5c4C(=O)c4ccccc4C5=O)[C@]24O[C@]314  SF-539 CNS  < 1 nM

Exercise: Give SF-539 CNS GI50 for NC(=NC1C2CC3CC(C2)CC1C3)Nc1ccc(I)cc1 (stereo not given)
Key: 4160 nM

Exercise: Query COc1cc([N+](=O)[O-])c2ncccc2c1O next
Key: 2590 nM

Exercise: Query C=C1C(=O)O[C@H]2[C@H](OC(C)=O)[C@@H](C)CCC/C(C)=C/CC[C@]3(CO3)[C@H](O)C[C@@H]12 next
Key: 3200 nM

Exercise: Query CN1C=CN(Cc2ccc(-c3ccccn3)nc2)[CH-]1.CN1C=CN(Cc2ccc(-c3ccccn3)nc2)[CH-]1.[Au+3] next
Key: 2340 nM

---

- System: HCT-116 colon
- Protocol Summary: NCI tumour cell line growth inhibition, 48 h
# TGI per record follows

Here is how some molecules turned out for TGI.
Molecule	Tested On	TGI
CC12CC(=O)NN=C1c1ccccc1C2 (centres undefined)	HCT-116 colon	> 100 µM
Nc1nc(Cl)cc(NCCCCCCCCCCNc2cc(Cl)nc(N)n2)n1	HCT-116 colon	> 100 µM

Exercise: If you can, please state the reported TGI value of Cc1ccc(Nc2ccnc(Nc3cccc(C(N)=O)c3)n2)cc1O .
Key: > 25 µM

Exercise: Query COc1ccc(CNc2cnc3cc(N)ccc3n2)cc1OC next
Key: > 100 µM

Exercise: Query CCn1c(-c2cc3ccccc3cc2OC(=O)c2ccccc2)n[nH]c1=S next
Key: > 50 µM

---

- Test system: SK-MEL-28 melanoma
- Protocol Summary: NCI tumour cell line growth inhibition, 48 h
Property: TGI

Compound	Tested On	TGI
CC(C)S(=O)(=O)n1c(N)nc2ccc(/C(=N/O)c3ccccc3)cc21	SK-MEL-28 melanoma	> 100 µM

Exercise: If you can, please state the reported TGI value of COc1cc(/C=C/C=C2\CC(C)C/C(=C\C=C\c3ccc(O)c(OC)c3)C2=O)ccc1O (configuration not stated) .
Key: 45.5 µM

Exercise: Query COC(=O)[C@]12CCC(=O)N1[C@H](C(=O)O)Cc1c2[nH]c2ccccc12 next
Key: > 100 µM

Exercise: Query CC(=O)Nc1[nH]c(=O)[nH]c(=O)c1N(C(C)=O)C(C)=O next
Key: > 100 µM

Exercise: Query COC(=O)C[C@H]1[C@]2(C)C3=C(C)[C@H](c4ccoc4)CC3O[C@@H]2[C@@H]2OC(=O)[C@]3(C)CCC(=O)[C@@]1(C)[C@@H]23 (some centres not stated) next
Key: > 100 µM

Exercise: Query COc1ccc(C2=C(N)c3ccccc3C2=O)cc1 next
Key: > 100 µM

Exercise: Query CC1=C[C@H]2C[C@@]3(C)O[C@@H]([C@]4(C)CC[C@H]([C@@H](C)C(=O)O)OO4)CC3C(C)(C)[C@H]2CC1 (some centres not stated) next
Key: 2.95 µM

---

- Test system: A498 renal
- Protocol Summary: NCI tumour cell line growth inhibition, 48 h
Property: GI50

> print(dat)
                                   molecule   tested.on    result
1             CCc1ccc(/C=C2/SC(=S)NC2=O)cc1  A498 renal   6150 nM
2  NC(=NC1C2CC3CC(C2)CC1C3)Nc1ccc(I)cc1 (centres undefined)  A498 renal   2470 nM
3           Cc1cc(I)cc(CN(C)CCCCN2CCCC2)c1O  A498 renal  13400 nM
4  Brc1ccc2[nH]cc(-c3nc(-c4c[nH]c5ccncc45)cs3)c2c1  A498 renal   1810 nM
5  COc1cc(SC)ccc1C(=O)N1CCCC(C)C1 (centres undefined)  A498 renal  34400 nM

Exercise: If you can, please state the reported GI50 value of COc1cc([N+](=O)[O-])c2ncccc2c1O .
Key: 1310 nM

Exercise: Query O=c1c2c(=NCCCN3CCCC3)cc3c(=O)n(CCCN4CCCC4)c(=O)c4c(NCCCN5CCCC5)cc(c(O)n1CCCN1CCCC1)c2c4-3 next
Key: 2130 nM

Exercise: Query CCNC1=CC(=O)c2ncccc2C1=O next
Key: 1240 nM

Exercise: Query C=C1C(=O)O[C@H]2[C@H](OC(C)=O)[C@@H](C)CCC/C(C)=C/CC[C@]3(CO3)[C@H](O)C[C@@H]12 next
Key: 16900 nM

---

- Test system: OVCAR-5 ovarian
- Protocol Summary: NCI tumour cell line growth inhibition, 48 h
# TGI per record follows
Give just the number in µM; leave the unit off.

Here is how some compounds turned out for TGI.
> print(dat)
                                   compound  recorded.number
1           N#CCc1nc2c(s1)C(=O)c1ccccc1C2=O             37.2
2  CCOc1cc(C=Nc2ccc(Oc3ccc(Cl)cc3)c(Cl)c2)ccc1O             79.7
3  Cc1ccc(S(=O)(=O)ON=C2CC(c3ccccc3)N(C)C(c3ccccc3)C2)cc1 (centres undefined)             92.6
4  C=C1C(=O)O[C@H]2[C@H](OC(C)=O)[C@@H](C)CCC/C(C)=C/CC[C@]3(CO3)[C@H](O)C[C@@H]12             26.5

Exercise: If you can, please state the reported TGI value of ClCc1ccc(Cn2cnc3ncnc(Cl)c32)cc1 .
Key: 19.7

Exercise: Query CCn1c2ccccc2c2cc(NC(=O)c3c(C)[nH]c(=O)[nH]c3=S)ccc21 next
Key: 68.2

Exercise: Query O=C1C=Cc2noc3cccc1c23 next
Key: 28.4

Exercise: Query COCCOCCOCCOCCOc1ccc2c(c1)C(=O)c1nc3ncccc3c(=O)n1-2 next
Key: 3.16

Reference source: PubChem BioAssay (NCI)
